measurement_target: T1, cyno TfR extracellular domain (analogous construct to human TfR ecd) (cynomolgus monkey, UniProt Q5RDH6 87-760 (Pongo abelii entry))
T1 construct: also called cynoTfR ecd
T1 chain: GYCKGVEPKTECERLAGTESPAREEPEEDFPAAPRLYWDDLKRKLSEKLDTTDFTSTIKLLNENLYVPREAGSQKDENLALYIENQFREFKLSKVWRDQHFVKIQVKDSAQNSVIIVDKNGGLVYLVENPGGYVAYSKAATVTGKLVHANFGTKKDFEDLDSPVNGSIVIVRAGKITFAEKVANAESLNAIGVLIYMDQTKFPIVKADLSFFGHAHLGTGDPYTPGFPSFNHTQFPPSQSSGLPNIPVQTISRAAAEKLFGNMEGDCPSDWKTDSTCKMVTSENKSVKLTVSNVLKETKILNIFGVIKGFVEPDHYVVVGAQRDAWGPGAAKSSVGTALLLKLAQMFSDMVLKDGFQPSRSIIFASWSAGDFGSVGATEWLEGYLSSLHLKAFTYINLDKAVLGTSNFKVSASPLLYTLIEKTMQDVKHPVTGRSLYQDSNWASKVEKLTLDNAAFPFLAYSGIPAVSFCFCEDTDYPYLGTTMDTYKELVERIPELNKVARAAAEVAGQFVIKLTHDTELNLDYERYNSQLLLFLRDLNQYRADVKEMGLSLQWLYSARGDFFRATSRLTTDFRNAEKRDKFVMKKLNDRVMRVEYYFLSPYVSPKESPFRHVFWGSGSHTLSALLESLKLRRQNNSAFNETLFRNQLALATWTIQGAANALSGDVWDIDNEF
assay_summary: ELISA, TfR-coated plate, IgG in culture supernatant;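 further: human or cynomolgus TfR coated at 2 µg/mL, supernatant IgG titrated in 1:5 steps for 1 h, bound antibody read with HRP anti-human Fcγ and TMB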
quantity_kind: EC50 (ng/mL)
Write the answer as a number in ng/mL, unit excluded.

# binder, uom, EC50
data = [
    ("hu15G11.v5 IgG Ala variant T53A (HVR-H2) (antibody, V domains shown, IgG in cell culture supernatant; also called 15G11.T53A; 15G11.53A) VH: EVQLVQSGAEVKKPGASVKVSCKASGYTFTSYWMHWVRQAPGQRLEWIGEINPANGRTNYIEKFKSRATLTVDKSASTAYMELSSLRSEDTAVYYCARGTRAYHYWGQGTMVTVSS VL: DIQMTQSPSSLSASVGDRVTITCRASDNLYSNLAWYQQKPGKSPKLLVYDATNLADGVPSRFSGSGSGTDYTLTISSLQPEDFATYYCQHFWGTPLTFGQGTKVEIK", "ng/mL", 0.7),
]

Shifting focus to the binder that follows.
Looking up hu15G11.v5 IgG Ala variant Y59A (HVR-H2) (antibody, name in Kabat numbering, V domains shown, IgG in cell culture supernatant; Kabat numbers after 52a lie one below the linear count) VH: EVQLVQSGAEVKKPGASVKVSCKASGYTFTSYWMHWVRQAPGQRLEWIGEINPTNGRTNAIEKFKSRATLTVDKSASTAYMELSSLRSEDTAVYYCARGTRAYHYWGQGTMVTVSS VL: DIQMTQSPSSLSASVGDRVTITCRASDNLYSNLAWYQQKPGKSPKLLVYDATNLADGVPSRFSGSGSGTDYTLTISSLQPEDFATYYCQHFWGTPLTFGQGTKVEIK , I found its EC50 recorded as 0.7
